# Species: Rattus norvegicus
# Experiment summary: Open TG-GATES - Regimen: Daily Repeat
# Type: toxicity, organism-based, Sprague-Dawley
# Set-up: regimen Daily Repeat, gender Male, age 6 weeks
# Measurement context: in vivo, po, 0 mg/kg, 72 h, tissue Plasma, route gavage, dose level Control, time 3 day

| Substance smiles | DBIL / mg/dL |
| --- | --- |
| C[C@H](CS)C(=O)N1CCC[C@H]1C(=O)O | 0.016 |
| Clc1ccccc1CN1CCc2sccc2C1 | 0.07 |
| O=C(O)c1cc(/N=N/c2ccc(S(=O)(=O)Nc3ccccn3)cc2)ccc1O | 0.1 |
| CO[C@H]1/C=C/O[C@@]2(C)Oc3c(C)c(O)c4c(O)c(c(/C=N/N5CCN(C)CC5)c(O)c4c3C2=O)NC(=O)/C(C)=C\C=C\[C@H](C)[C@H](O)[C@@H](C)[C@@H](O)[C@@H](C)[C@H](OC(C)=O)[C@@H]1C | 0.004 |
| NC(=O)N/N=C/c1ccc([N+](=O)[O-])o1 | 0.016 |
| CC(=O)Oc1ccccc1C(=O)O | 0.082 |
| COc1ccc2c(c1)c(CC(=O)O)c(C)n2C(=O)c1ccc(Cl)cc1 | 0.032 |
| Cn1c(=O)c2[nH]cnc2n(C)c1=O.O | 0 |
| O=C(O)c1cn(C2CC2)c2cc(N3CCNCC3)c(F)cc2c1=O | 0.002 |
